Value source: patent US6638956B2

Here the recorded melting point is given for each entry.

COMPOUND	melting point
Nc1c(SC(F)(F)F)c(C=NO)nn1-c1c(Cl)cc(C(F)(F)F)cc1Cl [Compound 6]	163 to 169 °C
CC[S+]([O-])CCNc1c([S+]([O-])CC)c(C(=N)NO)nn1-c1c(Cl)cc(C(F)(F)F)cc1Cl (centres unmarked) [Compound 66]	173 to 175 °C
CCCCCCCC(=O)NNC(=N)c1nn(-c2c(Cl)cc(C(F)(F)F)cc2Cl)c(N)c1[S+](C)[O-] (centres unmarked) [Compound 71]	122 °C
C[S+]([O-])c1c(C=NO)nn(-c2c(Cl)cc(OC(F)(F)F)cc2Cl)c1N (centres unmarked) [Compound 4]	144 to 146 °C
C[S+]([O-])c1c(C(=N)NO)nn(-c2ncc(C(F)(F)F)cc2Cl)c1N (centres unmarked) [Compound 54]	234 to 235 °C
CCNc1c([S+](C)[O-])c(C(=N)NO)nn1-c1c(Cl)cc(C(F)(F)F)cc1Cl (centres unmarked) [Compound 56]	192 to 193 °C
C[S+]([O-])c1c(C(=N)NO)nn(-c2c(Cl)cc(C(F)(F)F)cc2Cl)c1NCCC#N (centres unmarked) [Compound 58]	175 to 176 °C
N=C(NO)c1nn(-c2c(Cl)cc(C(F)(F)F)cc2Cl)c(N)c1S(=O)(=O)CCF [Compound 52]	107 to 111 °C
